B1: LMNB1 (parent)
chain: LYKEELEQTYHAKLENARLSSEMN

variants of: B1; test: protein stability index of a GFP-peptide fusion (GPS, HEK-293T) (PSI 1-6); higher = more stable; settings: c terminus: a fixed tail appended;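 note: lentivirally expressed fusions sorted by FACS into six bins by GFP to DsRed ratio, PSI derived from sequencing read proportions per bin multiplied by bin number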
Please enter yes where protein stability index is greater than or equal to 3, and no where it is lower.

protein stability index >= 3 for N16C ? no

protein stability index >= 3 for S20A ? no

protein stability index >= 3 for Y2E ? yes

protein stability index >= 3 for K3I ? no

protein stability index >= 3 for E7N ? yes

protein stability index >= 3 for L19E ? yes

protein stability index >= 3 for M23P ? no

protein stability index >= 3 for N24K ? no

protein stability index >= 3 for K13D ? yes

protein stability index >= 3 for N24P ? no

protein stability index >= 3 for S21T ? no

protein stability index >= 3 for A17C ? no

protein stability index >= 3 for E7C ? no

protein stability index >= 3 for A17P ? no

protein stability index >= 3 for E5Q ? no

protein stability index >= 3 for Y2Q ? yes

protein stability index >= 3 for S21I ? no

protein stability index >= 3 for A12T ? yes

protein stability index >= 3 for E22D ? no

protein stability index >= 3 for L14N ? yes
